Data provenance: patent US20220274927A1

# Test system: methicillin-resistant S. aureus (FPR3757)
# TEST_SUMMARY: MIC against clinical MRSA strain FPR3757 in Mueller-Hinton broth (CLSI)
# Format: cell-based, Staphylococcus aureus
# MEASUREMENT_SETUP: MRSA clinical strain FPR3757, Mueller-Hinton broth, CLSI guidelines, complete inhibition of observable growth
QUANTITY_KIND: MIC (µg/mL)

COMPOUND: O=c1cc(C(F)(F)F)[nH]c2cc(OCc3ccccc3)ccc12 [Compound 8]
ASSAY_SYSTEM: methicillin-resistant S. aureus (FPR3757)
ENDPOINT_UNIT: µg/mL
BOUND_SIGN: =
VAL: 640

COMPOUND: FC(F)(F)Oc1cccc(Nc2cc(C(F)(F)F)nc3c(OC(F)(F)F)cccc23)c1 [Compound 43]
ASSAY_SYSTEM: methicillin-resistant S. aureus (FPR3757)
ENDPOINT_UNIT: µg/mL
BOUND_SIGN: =
VAL: 1

COMPOUND: FC(F)(F)c1ccc(Nc2cc(N3CCOCC3)c3ccc(C(F)(F)F)cc3n2)nc1 [Compound 105]
ASSAY_SYSTEM: methicillin-resistant S. aureus (FPR3757)
ENDPOINT_UNIT: µg/mL
BOUND_SIGN: =
VAL: 8

COMPOUND: FC(F)(F)c1ccc2c(Nc3ccncc3)cc(C(F)(F)F)nc2c1 [Compound 53]
ASSAY_SYSTEM: methicillin-resistant S. aureus (FPR3757)
ENDPOINT_UNIT: µg/mL
BOUND_SIGN: >
VAL: 32

COMPOUND: OC1CCCN(c2cc(C(F)(F)F)nc3cc(C(F)(F)F)ccc23)C1 (stereo not drawn) [Compound 58]
ASSAY_SYSTEM: methicillin-resistant S. aureus (FPR3757)
ENDPOINT_UNIT: µg/mL
BOUND_SIGN: >
VAL: 32

----------
# System: methicillin-resistant S. aureus (FPR3757)
# TEST_SUMMARY: MIC against clinical MRSA strain FPR3757 in Mueller-Hinton broth (CLSI)
# Format: cell-based, Staphylococcus aureus
# MEASUREMENT_SETUP: MRSA clinical strain FPR3757, Mueller-Hinton broth, CLSI guidelines, complete inhibition of observable growth

MOLECULE: O=C1Cc2cc(Nc3cc(C(F)(F)F)nc4cc(C(F)(F)F)ccc34)ccc2N1 [Compound 64]
BOUND_SIGN: >
MIC [mg/L]: 32

MOLECULE: COC(=O)c1cc(Nc2cc(C(F)(F)F)nc3cc(C(F)(F)F)ccc23)ccn1 [Compound 54]
BOUND_SIGN: >
MIC [mg/L]: 32

MOLECULE: CSc1ccc2c(=O)cc(C(F)(F)F)[nH]c2c1 [Compound 10]
BOUND_SIGN: =
MIC [mg/L]: 640

MOLECULE: FC(F)(F)c1ccc2c(Nc3cccc4[nH]ncc34)cc(C(F)(F)F)nc2c1 [Compound 61]
BOUND_SIGN: >
MIC [mg/L]: 32

MOLECULE: CCc1ccc2c(=O)cc(C(F)(F)F)[nH]c2c1 [Compound 7]
BOUND_SIGN: =
MIC [mg/L]: 320

MOLECULE: CN1Cc2cc(Nc3cc(C(F)(F)F)nc4cc(C(F)(F)F)ccc34)ccc2C1=O [Compound 62]
BOUND_SIGN: >
MIC [mg/L]: 32

MOLECULE: FC(F)(F)c1ccc2c(Nc3ccc(Cl)c(Cl)c3)nc(C(F)(F)F)nc2c1 [Compound 89]
BOUND_SIGN: =
MIC [mg/L]: 0.5

MOLECULE: O=c1cc(C(F)(F)F)[nH]c2cc(C(F)(F)F)cc(Nc3cccc4[nH]ncc34)c12 [Compound 116]
BOUND_SIGN: =
MIC [mg/L]: 2

MOLECULE: FC(F)(F)Oc1cccc(Nc2nc(C(F)(F)F)nc3cc(C(F)(F)F)ccc23)c1 [Compound 90]
BOUND_SIGN: =
MIC [mg/L]: 1

MOLECULE: FC(F)(F)c1ccc2c(N3CCc4cccnc43)cc(C(F)(F)F)nc2c1 [Compound 63]
BOUND_SIGN: >
MIC [mg/L]: 32

MOLECULE: FC(F)(F)Oc1cccc(Nc2cc(C(F)(F)F)nc3c(OC(F)(F)F)cccc23)c1 [Compound 1]
BOUND_SIGN: =
MIC [mg/L]: 8

MOLECULE: FC(F)(F)Oc1cccc(Nc2cc(C(F)(F)F)nc3cc(OC(F)(F)F)ccc23)c1 [Compound 33]
BOUND_SIGN: =
MIC [mg/L]: 1

MOLECULE: FC(F)(F)c1ccc2c(NC3CCCCC3)cc(C(F)(F)F)nc2c1 [Compound 57]
BOUND_SIGN: >
MIC [mg/L]: 16

MOLECULE: CN(C)c1ccc(Nc2cc(C(F)(F)F)cc3[nH]c(C(F)(F)F)cc(=O)c23)nc1 [Compound 113]
BOUND_SIGN: =
MIC [mg/L]: 2

----------
Some compounds, each annotated with its measured MIC.
# Test system: methicillin-resistant S. aureus (FPR3757)
# TEST_SUMMARY: MIC against clinical MRSA strain FPR3757 in Mueller-Hinton broth (CLSI)
# Format: cell-based, Staphylococcus aureus
# MEASUREMENT_SETUP: MRSA clinical strain FPR3757, Mueller-Hinton broth, CLSI guidelines, complete inhibition of observable growth
QUANTITY_KIND: MIC (µg/mL)

COMPOUND: O=c1cc(C(F)(F)F)[nH]c2cc(Nc3ccc(C(F)(F)F)cn3)cc(C(F)(F)F)c12
QUANTITY_KIND: MIC
BOUND_SIGN: =
VAL: 4
//
COMPOUND: COc1ccc2c(=O)cc(C(F)(F)F)[nH]c2c1
QUANTITY_KIND: MIC
BOUND_SIGN: =
VAL: 640
//
COMPOUND: O[C@H]1C[C@H]2CC[C@@H](C1)C2Nc1cc(C(F)(F)F)nc2cc(C(F)(F)F)ccc12 (some centres unmarked)
QUANTITY_KIND: MIC
BOUND_SIGN: >
VAL: 32
//
COMPOUND: FC(F)(F)c1ccc2c(Nc3ncccn3)cc(C(F)(F)F)nc2c1
QUANTITY_KIND: MIC
BOUND_SIGN: >
VAL: 32
//
COMPOUND: FC(F)(F)c1ccc2c(NC[C@@H]3CCCN3)cc(C(F)(F)F)nc2c1
QUANTITY_KIND: MIC
BOUND_SIGN: >
VAL: 32
//
COMPOUND: CN(C)S(=O)(=O)c1ccc(Nc2cc(C(F)(F)F)cc3[nH]c(C(F)(F)F)cc(=O)c23)nc1
QUANTITY_KIND: MIC
BOUND_SIGN: =
VAL: 2
//
COMPOUND: FC(F)(F)c1ccc2c(N3CCOCC3)cc(C(F)(F)F)nc2c1
QUANTITY_KIND: MIC
BOUND_SIGN: >
VAL: 32
//
COMPOUND: FC(F)(F)c1ccc2c(Nc3cccc(Cl)c3)cc(C(F)(F)F)nc2c1
QUANTITY_KIND: MIC
BOUND_SIGN: =
VAL: 0.25

----------
# System: methicillin-resistant S. aureus (FPR3757)
# TEST_SUMMARY: MIC against clinical MRSA strain FPR3757 in Mueller-Hinton broth (CLSI)
# Type: cell-based, Staphylococcus aureus
# MEASUREMENT_SETUP: Staphylococcus aureus, MRSA, MRSA clinical strain FPR3757, Mueller-Hinton broth, CLSI guidelines, complete inhibition of observable growth; read-out: MIC
# Method: The first set of compounds evaluated were analogs at the C-7 and C-8 positions of the initial quinolone hit DNAC-2 since the other HTS hits identified (data not shown) were substituted at these positions (Table 1). Applicants first explored modification at the C-7 position with a small series of electron-donating and withdrawing substituents. […] The C-8 position was evaluated with trifluoromethyl 4 and trifluoromethoxy 5 containing the optimal C-7 substituents. […]
QUANTITY_KIND: MIC

SMILES: O=c1cc(C(F)(F)F)[nH]c2cc(C(F)(F)F)cc(Nc3ccc(F)c(F)c3)c12
VAL: < 0.06 µg/mL
//
SMILES: O=c1cc(C(F)(F)F)[nH]c2cc(Nc3ccc(Cl)c(Cl)c3)cc(C(F)(F)F)c12
VAL: 1 µg/mL
//
SMILES: FC(F)(F)Oc1cccc2c(Nc3ccc(Cl)c(Cl)c3)cc(C(F)(F)F)nc12
VAL: 0.5 µg/mL
//
SMILES: CN1Cc2cc(Nc3cc(C(F)(F)F)nc4cc(C(F)(F)F)ccc34)ccc2C1=O
VAL: > 32 µg/mL
//
SMILES: Cn1cc(Nc2cc(C(F)(F)F)nc3cc(C(F)(F)F)ccc23)ccc1=O
VAL: > 32 µg/mL
//
SMILES: FC(F)(F)c1ccc2c(Nc3cccc(I)c3)cc(C(F)(F)F)nc2c1
VAL: 0.25 µg/mL
//
SMILES: CN(C)c1ccc(Nc2cc(C(F)(F)F)cc3[nH]c(C(F)(F)F)cc(=O)c23)nc1
VAL: 1 to 2 µg/mL
//
SMILES: FC(F)(F)c1ccc2c(Nc3ccccc3Cl)cc(C(F)(F)F)nc2c1
VAL: > 16 µg/mL
//
SMILES: FC(F)(F)c1ccc2c(NC[C@@H]3CCCN3)cc(C(F)(F)F)nc2c1
VAL: > 32 µg/mL
//
SMILES: COc1ccc2c(Nc3ccc(F)c(F)c3)cc(C(F)(F)F)nc2c1
VAL: > 32 µg/mL
//
SMILES: O=c1cc(Nc2cc(C(F)(F)F)nc3cc(C(F)(F)F)ccc23)cc[nH]1
VAL: > 32 µg/mL
//
SMILES: FC(F)(F)c1ccc2c(Nc3ccc(Cl)c(Cl)c3)cc(C(F)(F)F)nc2c1
VAL: 0.06 µg/mL
//
SMILES: FC(F)(F)c1ccc2c(N3CCc4cccnc43)cc(C(F)(F)F)nc2c1
VAL: > 32 µg/mL
//
SMILES: FC(F)(F)Oc1cccc2c(Nc3ccc(C(F)(F)F)cn3)cc(C(F)(F)F)nc12
VAL: 1 µg/mL
//
SMILES: FC(F)(F)c1ccc2c(Nc3nccs3)cc(C(F)(F)F)nc2c1
VAL: 2 µg/mL
//
SMILES: OCc1cccc(Nc2cc(C(F)(F)F)nc3cc(C(F)(F)F)ccc23)c1
VAL: > 16 µg/mL
//
SMILES: FC(F)(F)Oc1ccc2c(Nc3ccc(Cl)c(Cl)c3)cc(C(F)(F)F)nc2c1
VAL: 0.5 to 1 µg/mL
//
SMILES: O=c1cc(C(F)(F)F)[nH]c2cc(Cl)ccc12
VAL: 20 µg/mL
